Assay: ZEN concentrations and carryover factor in intestinal tissues and liver of pre-pubertal gilts exposed per os (HPLC)
Assay type: in vivo
Settings: female, pig, transverse colon, oral, 40 μg/kg BW, Week II of exposure; 40 μg/kg BW daily per os; total ZEN dose 560 µg/kg BW; read-out: ZEN Concentrations (x¯ and SD), Transverse Colon
readout: concentration at 2 weeks
The answer should read as a number with its unit following.

Query: I would be grateful if you could share the reported concentration at 2 weeks for "C[C@H]1CCCC(=O)CCC/C=C/c2cc(O)cc(O)c2C(=O)O1" .
Reply: 4.63 ng/g

* * *

Assay: ZEN concentrations and carryover factor in intestinal tissues and liver of pre-pubertal gilts exposed per os (HPLC)
Format: in vivo
Conditions: female, pig, ascending colon, oral, 40 μg/kg BW, Week III of exposure; 40 μg/kg BW daily per os; total ZEN dose 840 µg/kg BW; read-out: ZEN Concentrations (x¯ and SD), Ascending Colon
readout: concentration at 3 weeks

Query: Which concentration at 3 weeks value belongs to "C[C@H]1CCCC(=O)CCC/C=C/c2cc(O)cc(O)c2C(=O)O1" ?
Reply: 3.16 ng/g

* * *

Assay: ZEN concentrations and carryover factor in intestinal tissues and liver of pre-pubertal gilts exposed per os (HPLC)
Format: in vivo
Conditions: female, pig, ascending colon, oral, 40 μg/kg BW, Week II of exposure; 40 μg/kg BW daily per os; total ZEN dose 560 µg/kg BW; read-out: ZEN Concentrations (x¯ and SD), Ascending Colon
Procedure: The animals were divided into an experimental group (E, n = 18) and a control group (C, n = 21). Group E animals were orally administered ZEN at 40 μg/kg BW. Group C pigs were fed a placebo. […] The concentrations of ZEN and its derivatives were determined by HPLC with the use of the Waters 2695 Separations Module, Waters 2475 Multi λ Fluorescence Detector and Waters 2996 Array Detector. […] Detection limits were determined at 0.001 µg·g^−1 for ZEN, 0.003 µg·g^−1 for α-ZEL and 0.002 µg·g^−1 for β-ZEL. […]
readout: concentration at 2 weeks (ng/g)
Supply the numeric figure in ng/g, leaving out any unit text.

Query: Would you mind telling me what concentration at 2 weeks value was observed for C[C@H]1CCCC(=O)CCC/C=C/c2cc(O)cc(O)c2C(=O)O1 [ZEN, zearalenone] ?
Reply: 1.59

* * *

Assay: ZEN concentrations and carryover factor in intestinal tissues and liver of pre-pubertal gilts exposed per os (HPLC)
Type: in vivo
Conditions: female, pig, transverse colon, oral, 40 μg/kg BW daily, Week V of exposure; 40 μg/kg BW daily per os; total ZEN dose 1400 µg/kg BW; read-out: ZEN Concentrations (x¯ and SD), Transverse Colon
readout: concentration at 5 weeks (ng/g)
Record the value in ng/g, omitting the unit from your answer.

Query: What value of measured concentration at 5 weeks is listed for C[C@H]1CCCC(=O)CCC/C=C/c2cc(O)cc(O)c2C(=O)O1 [ZEN, zearalenone] ?
Reply: 6.49

* * *

Experiment: ZEN concentrations and carryover factor in intestinal tissues and liver of pre-pubertal gilts exposed per os (HPLC)
Type: in vivo
Details: female, pig, ascending colon, oral, 40 μg/kg BW, Week VI of exposure; 40 μg/kg BW daily per os; total ZEN dose 1680 µg/kg BW; read-out: ZEN Concentrations (x¯ and SD), Ascending Colon
readout: concentration at 6 weeks (ng/g)
Please give a number only; it is taken to be in ng/g.

Query: concentration at 6 weeks for C[C@H]1CCCC(=O)CCC/C=C/c2cc(O)cc(O)c2C(=O)O1 [ZEN, zearalenone] ?
Reply: 2.46
